Test: growth inhibition of GSK3B-pretreated HCT116 cells – cell-based, CellTiter-Glo, 0.2 to 20 µM (AID 1117336)
Settings: HCT116 viability after GSK3B inhibitor, at 20 µM
Activity calls are given as the source filed them.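 The calls were made as follows: active = compounds lowering colon cancer cell viability after pretreatment blocking the GSK3B kinase; inactive = the rest.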
The reply should be one of these categories: active, inactive

How was "Nc1ccc(C(=O)NCC(=O)O)cc1" classified in this test?
inactive

Per the records of this test, what outcome belongs to "Nc1ccc(S(=O)(=O)NC(=O)c2ccccc2)cc1" ?
inactive

Could you please tell me the result logged for "COc1ccc(CN(CCN(C)C)c2ncccn2)cc1" in this assay?
inactive

What was the test verdict on CCC1=C(C)CN(C(=O)NCCc2ccc(S(=O)(=O)NC(=O)NC3CCC(C)CC3)cc2)C1=O (stereo not drawn) ?
inactive

Assay outcome for Cc1ncc([N+](=O)[O-])n1CC(O)CCl (stereo not drawn) : what was it?
inactive

Outcome? "Cc1cn([C@H]2C=C[C@@H](CO)O2)c(=O)[nH]c1=O"
inactive

Name the outcome recorded for "CN(Cc1cc(Br)cc(Br)c1N)C1CCCCC1" in the assay.
active

# fetch the recorded call for "NC(N)=NS(=O)(=O)c1ccc(N)cc1" here
inactive

Just curious, what result did "CCN(CC)CCNC(=O)c1cc(S(C)(=O)=O)ccc1OC" get here?
inactive

Would you mind telling me which call this test gave "O=c1[nH]c(=O)n([C@H]2C[C@H](O)[C@@H](CO)O2)cc1F" ?
active

Hi, sorry to bother you, what did the test record for "NC1CCN(c2cccc(Cl)n2)CC1" ?
inactive

Please share the test call associated with "NC(=O)c1ccc([N+](=O)[O-])cc1Cl" .
inactive

# fetch the recorded call for COc1ccc2nc(S(=O)Cc3ncc(C)c(OC)c3C)[nH]c2c1 (stereo not drawn) here
inactive
